target: T1, human PD-1 (construct not stated) (human, UniProt Q15116 25-167, limits assumed); assay: Biacore, antibody captured, PD-1 analyte
T1 construct: also called PD-1 analyte
T1 sequence (Q15116 25-167 limits assumed): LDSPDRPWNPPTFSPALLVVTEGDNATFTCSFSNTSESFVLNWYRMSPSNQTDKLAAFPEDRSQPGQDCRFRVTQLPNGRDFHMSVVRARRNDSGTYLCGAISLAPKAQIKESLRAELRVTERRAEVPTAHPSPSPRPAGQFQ
Item-by-item account of Kd
Report the figure in nM without appending any unit label.

Below, each entry is followed by its recorded Kd result.
binder: 4C10 murine anti-PD-1 antibody (antibody, V domains shown, Purified hybridoma antibody; also called 4C10-mIgG1) VH: QVQLKQSGPGLVQPSQNLSVTCTVSGFSLTTYGVHWVRQSPGKGLEWLGVIWSGGSTDYNAAFISRLTISKDNARSQVFFKMNSLQVNDTAMYYCAREKSVYGNYVGAMDYWGQGTSVTVSS VL: SIVMTQTPKFLLVSAGDRVTITCKASQSVSDDVAWYQQKPGQSPKLLIYYAFNRYTGVPDRFTGSGYGTDFTFTISTVQSEDLAVYFCQQDYRSPWTFGGGTKLEIKR
valueUnits: nM
dataValue: 0.0332

binder: 10D1 murine anti-PD-1 antibody (antibody, V domains shown, Purified hybridoma antibody; also called 10D1-mIgG1) VH: EVKLVESGGGLVKPGGSLKLSCAASGFTFSSYGMSWLRQTPEKRLEWVATMSGGGRDIYYPDSMKGRFTISRDNAKNNLYLQMSSLRSEDTALYYCARQYYDDWFAYWGQGTLVTVSA VL: DIVLTQTPATLSVTPGDSVSLSCRASQSISNNLHWYQQKSHESPRLLIKYASQSISGIPSRFSGSGSGTDFTLNINSVETEDFGMYFCQQSNSWPLTFGAGTKLELKR
valueUnits: nM
dataValue: 0.0623

Let us move to another entry and its Kd.
Incoming: Which Kd value belongs to 22A5 murine anti-PD-1 antibody (antibody, V domains shown, Purified hybridoma antibody; also called 22A5-mIgG1) VH: EVKLVESGGGLVKPGGSLKLSCSASGFSFSYYDMSWVRQTPEKGLEWVATISGGGRNTYFIDSVKGRFTISRDNVKNNLYLLMSSLRSEDTALYYCASPYEGAVDFWGQGTSVTVSS VL: DIVMTQSHKVMSTSVGDRVSITCKASQDVDNAVAWYQQNPGQSPKLLIKWASTRHHGVPDRFTGSGSGTDFTLTISTVQSEDLADFFCQQYSTFPYTFGGGTKLEIKR ?
Outgoing: 0.0193
